Reported values of Kd for individual entries
Molecular target: T1, EsCas13d, nuclease-dead (Eubacterium siraeum, UniProt B0MS50, R295A;H300A;R849A;H854A)
T1 sequence: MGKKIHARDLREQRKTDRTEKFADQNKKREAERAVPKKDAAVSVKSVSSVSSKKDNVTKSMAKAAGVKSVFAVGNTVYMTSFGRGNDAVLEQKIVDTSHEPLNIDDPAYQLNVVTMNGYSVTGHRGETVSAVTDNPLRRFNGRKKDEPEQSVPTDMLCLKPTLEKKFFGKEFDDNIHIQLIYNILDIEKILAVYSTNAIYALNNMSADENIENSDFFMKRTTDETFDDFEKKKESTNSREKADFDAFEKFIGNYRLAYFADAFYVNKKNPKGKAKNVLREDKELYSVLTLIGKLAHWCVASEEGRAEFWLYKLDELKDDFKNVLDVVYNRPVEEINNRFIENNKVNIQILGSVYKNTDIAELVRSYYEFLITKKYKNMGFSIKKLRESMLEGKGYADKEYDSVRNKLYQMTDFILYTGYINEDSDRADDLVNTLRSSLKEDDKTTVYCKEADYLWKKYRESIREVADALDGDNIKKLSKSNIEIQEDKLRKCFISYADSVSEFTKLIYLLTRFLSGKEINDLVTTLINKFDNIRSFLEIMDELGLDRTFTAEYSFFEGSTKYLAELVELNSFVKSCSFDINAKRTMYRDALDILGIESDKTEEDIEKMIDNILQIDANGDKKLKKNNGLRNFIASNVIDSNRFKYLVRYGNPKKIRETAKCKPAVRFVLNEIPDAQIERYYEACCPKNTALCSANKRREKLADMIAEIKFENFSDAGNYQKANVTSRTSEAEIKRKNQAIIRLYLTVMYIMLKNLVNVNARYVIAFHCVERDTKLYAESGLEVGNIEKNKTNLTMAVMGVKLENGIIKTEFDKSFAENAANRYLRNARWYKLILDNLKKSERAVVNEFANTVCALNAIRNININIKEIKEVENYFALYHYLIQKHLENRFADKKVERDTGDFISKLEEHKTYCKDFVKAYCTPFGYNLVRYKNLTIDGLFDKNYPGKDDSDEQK
Test: crRNA (strand 1, pre-loaded); Mg2+; 40 mM Tris-HCl pH 7.5, 150 mM NaCl, 6 mM MgCl2, 1 mM DTT, 0.1% Tween-20, 0.2 mg/ml BSA; 25 C; 10 min per concentration, then washed
Settings: tags: His6-TwinStrep-SUMO cleaved; N-terminal SNAP kept (SNAP-Surface 488); label: 3' end held by stalled T7 RNA polymerase

- BINDER: "target 1 MT 5'PFS UGC 3'PFS CUA (mixed) RNA 1: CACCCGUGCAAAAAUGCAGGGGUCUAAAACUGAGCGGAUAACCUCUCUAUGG RNA 2: GGGAAUGGAUCCACAUCUACGAAUUCUGCCCAUAGAGAGGUUAUCCGCUCACUAAGAUCGGAAGAGCACACGU"
  Kd: "18 nM"
- BINDER: "target 2 MT 5'PFS UAC 3'PFS ACA (mixed) RNA 1: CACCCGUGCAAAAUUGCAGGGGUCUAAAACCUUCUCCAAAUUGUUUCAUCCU RNA 2: GGGAAUGGAUCCACAUCUACGAAUUCUACAGGAUGAAACAAUUUGGAGAAGACAAGAUCGGAAGAGCACACGU"
  Kd: "4.9 nM"
- BINDER: "target 3 A12G (mixed) RNA 1: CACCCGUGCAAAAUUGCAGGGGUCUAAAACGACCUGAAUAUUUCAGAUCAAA RNA 2: GGGAAUGGAUCCACAUCUACGAAUUCGUUUUUGAUCUGAGAUAUUCAGGUCUGCAGAUCGGAAGAGCACACGU"
  Kd: "43 nM"
- BINDER: "target 1 insC 3' of 18,insA 3' of 11 (mixed) RNA 1: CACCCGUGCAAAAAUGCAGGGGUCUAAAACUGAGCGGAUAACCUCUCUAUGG RNA 2: GGGAAUGGAUCCACAUCUACGAAUUCGUACCAUACGAGAGGUAUAUCCGCUCACCGAGAUCGGAAGAGCACACGU"
  Kd: "74 nM"
- BINDER: "target 1 MT 5'PFS UAG 3'PFS AGG (mixed) RNA 1: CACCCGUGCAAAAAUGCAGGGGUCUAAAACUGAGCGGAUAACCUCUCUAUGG RNA 2: GGGAAUGGAUCCACAUCUACGAAUUCUAGCCAUAGAGAGGUUAUCCGCUCAAGGAGAUCGGAAGAGCACACGU"
  Kd: "65.5 nM"
- BINDER: "target 1 insA 3' of 12,insA 3' of 12 (mixed) RNA 1: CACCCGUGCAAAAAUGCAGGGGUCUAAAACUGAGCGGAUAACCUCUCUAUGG RNA 2: GGGAAUGGAUCCACAUCUACGAAUUCGUACCAUAGAGAGGAAUUAUCCGCUCACCGAGAUCGGAAGAGCACACGU"
  Kd: "14.3 nM"
- BINDER: "target 1 A9U,G12A (mixed) RNA 1: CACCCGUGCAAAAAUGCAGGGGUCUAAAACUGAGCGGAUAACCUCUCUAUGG RNA 2: GGGAAUGGAUCCACAUCUACGAAUUCGUACCAUAGAGAGAUUUUCCGCUCACCGAGAUCGGAAGAGCACACGU"
  Kd: "7.7 nM"
- BINDER: "target 2 MT 5'PFS UAG 3'PFS UCG (mixed) RNA 1: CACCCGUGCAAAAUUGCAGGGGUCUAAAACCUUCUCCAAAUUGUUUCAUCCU RNA 2: GGGAAUGGAUCCACAUCUACGAAUUCUAGAGGAUGAAACAAUUUGGAGAAGUCGAGAUCGGAAGAGCACACGU"
  Kd: "4.1 nM"
